experiment-summary: chemical genetic growth profiling, strain panel (AID 1159580);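 note: tested at 20 µM; growth read once vehicle control cultures reached saturation at 30 °C; 1 = growth at the plate median or of vehicle wells; lower values mean less growth of the strain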
study-conditions: S. cerevisiae deletion strains, growth OD, locus YLR320W, strain mms22, hits give low values
The campaign covered roughly 5,500 compounds. About 2,000 (36%) were called active. Another 18% or so got no clear call; they are omitted. This is one part of the list.
observation-type: normalized growth

INSERT INTO assay_data (compound, reported_value) VALUES
  ('CCCCc1nc(Cl)c(CO)n1Cc1ccc(-c2ccccc2-c2nn[nH]n2)cc1', 0.985),
  ('CC1=NN(c2ccccc2)C(=O)C1', 0.962),
  ('CC(NCCC(c1ccccc1)c1ccccc1)c1ccccc1 (stereo unspecified)', 0.898),
  ('CCCc1nc2c(C)cc(-c3nc4ccccc4n3C)cc2n1Cc1ccc(-c2ccccc2C(=O)O)cc1', 0.983),
  ('COc1cc2c(cc1O)CCNC2C (stereo unspecified)', 0.994),
  ('COc1ccc2c(c1)[C@]13CCCC[C@H]1[C@H](C2)N(C)CC3', 1),
  ('COc1cc(-c2oc3cc(O)ccc3c(=O)c2O)ccc1O', 0.9),
  ('CN(C)C(=N)N=C(N)N', 0.93),
  ('CN1CCN(CC(=O)N2c3ccccc3C(=O)Nc3cccnc32)CC1', 1.02),
  ('C1CCC(C(CC2CCCCN2)C2CCCCC2)CC1 (stereo unspecified)', 0.862),
  ('CCOC([O-])=Nc1c[n+](N2CCOCC2)no1', 0.987),
  ('CCNc1nc(Cl)nc(NCC)n1', 0.986),
  ('CC1(C)C(=O)[C@@H]2C[C@@]3(O)C4=CC(=O)O[C@@H](c5ccoc5)[C@]4(C)CCC3[C@@](C)(C2=O)[C@H]1CC(=O)O (stereo partly specified)', 0.995),
  ('O=C(NC1CCCCC1)NC1CCCCC1', 0.974),
  ('COc1cc2c(cc1OC)[C@@]13CCN4CC5=CCOC6CC(=O)N2C1[C@H]6[C@H]5C[C@H]43 (stereo partly specified)', 0.982),
  ('O=C(O)[C@H](O)[C@@](O)(Cc1ccc(O)cc1)C(=O)O', 1.03),
  ('NC(=O)N1c2ccccc2C=Cc2ccccc21', 1.03),
  ('CCCCCCCCCCCCCCCCCCOCC(O)CO (stereo unspecified)', 0.979),
  ('O=C(OC[C@H]1O[C@H](OC(=O)c2cc(O)c(O)c(OC(=O)c3cc(O)c(O)c(O)c3)c2)[C@H](OC(=O)c2cc(O)c(O)c(OC(=O)c3cc(O)c(O)c(O)c3)c2)[C@@H](OC(=O)c2cc(O)c(O)c(OC(=O)c3cc(O)c(O)c(O)c3)c2)[C@@H]1OC(=O)c1cc(O)c(O)c(OC(=O)c2cc(O)c(O)c(O)c2)c1)c1cc(O)c(O)c(OC(=O)c2cc(O)c(O)c(O)c2)c1', 0.777),
  ('CC(=O)CC1CCCCN1 (stereo unspecified)', 1.04),
  ('COc1ccc(-c2oc3ccccc3c(=O)c2O)cc1OC', 0.537);
